- system: L1CAM endogenously expressed on MCF-7 and MDA-MB-231 cells (UniProt P32004)
- assay_details: flow cytometry, MCF-7 cells
value_kind: EC50 (pM)
All answers are understood in pM, so give the number only.

GET /value?item= 143G03 (antibody, V domains shown) VH: QVQLRQSGAELVRPGTSVKMSCKASGYTFTNYYIHWVKQRPGQGLEWIGKIGPGSGSPYYNGMFKDKATLTVDTSSSTAYMQLSSLTSEDSAVYFCARWLLPFDYWGQGTTLTVSS VL: QIVLSQSPGILSASPGEKVTMTCRASSSVNYMHWYQQKSGSSPKPWIFATSILASGVPPRFSGSGSGTSYSLTISSVEAEDTATYYCQQFSSDPLTFGAGTKLELK &field=EC50 returns 350
